- System: panel of cancer cell lines
- TEST DETAILS: Cell viability (CellTiter-Glo) dose-response across cancer cell line panel;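 note: after 72 h compound incubation with CellTiter-Glo ATP readout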
- Type: cell-based, human
- SETTINGS: Homo sapiens, CAL-85-1, CAL-85-1 cells
OBSERVED PROPERTY: EC50

Entry COCc1ccccc1NCc1ccc([C@@H]2[C@H](O)CCCc3cncn32)c(-c2ccccc2Cl)c1 [CSN5i-2e] : reported EC50 = ?
18.6 µM

---

- Tested on: panel of cancer cell lines
- TEST DETAILS: Cell viability (CellTiter-Glo) dose-response across cancer cell line panel;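 note: after 72 h compound incubation with CellTiter-Glo ATP readout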
- Assay type: cell-based, human
- SETTINGS: Homo sapiens, NCI-H2110, NCI-H2110
For each of the compounds below, state its EC50.
Give the quantity in nM, number only.

Entry `NS(=O)(=O)OC[C@@H]1C[C@@H](n2ccc3c(N[C@H]4CCc5ccccc54)ncnc32)C[C@@H]1O` : reported EC50 = ?
238

Entry `COCc1ccccc1NCc1ccc([C@H]2[C@@H](O)CCCc3cncn32)c(-c2ccccc2Cl)c1` : reported EC50 = ?
1760

---

- System: panel of cancer cell lines
- TEST DETAILS: Cell viability (CellTiter-Glo) dose-response across cancer cell line panel;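 note: after 72 h compound incubation with CellTiter-Glo ATP readout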
- Type: cell-based, human
- SETTINGS: Homo sapiens, NCI-H1693, NCI-H1693 cells
OBSERVED PROPERTY: EC50 (µM)
Give the quantity in µM, number only.

Entry `COCc1ccccc1NCc1ccc([C@@H]2[C@H](O)CCCc3cncn32)c(-c2ccccc2Cl)c1` : reported EC50 = ?
14.7

---

- System: panel of cancer cell lines
- TEST DETAILS: Cell viability (CellTiter-Glo) dose-response across cancer cell line panel;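 note: after 72 h compound incubation with CellTiter-Glo ATP readout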
- Type: cell-based, human
- SETTINGS: Homo sapiens, 8505C
OBSERVED PROPERTY: EC50 (µM)
Give the quantity in µM, number only.

Entry `NS(=O)(=O)OC[C@@H]1C[C@@H](n2ccc3c(N[C@H]4CCc5ccccc54)ncnc32)C[C@@H]1O` : reported EC50 = ?
0.271

Entry `COCc1ccccc1NCc1ccc([C@H]2[C@@H](O)CCCc3cncn32)c(-c2ccccc2Cl)c1` : reported EC50 = ?
0.829

---

- Test system: panel of cancer cell lines
- TEST DETAILS: Cell viability (CellTiter-Glo) dose-response across cancer cell line panel;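 note: after 72 h compound incubation with CellTiter-Glo ATP readout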
- Assay type: cell-based, human
- SETTINGS: Homo sapiens, NCI-H1651, NCI-H1651
OBSERVED PROPERTY: EC50 (nM)
Give the quantity in nM, number only.

Entry CC(C)C[C@H](NC(=O)[C@H](Cc1ccccc1)NC(=O)c1cnccn1)B(O)O [Bortezomib] : reported EC50 = ?
8.83

---

- Test system: panel of cancer cell lines
- TEST DETAILS: Cell viability (CellTiter-Glo) dose-response across cancer cell line panel;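 note: after 72 h compound incubation with CellTiter-Glo ATP readout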
- Assay type: cell-based, human
- SETTINGS: Homo sapiens, DLD-1, DLD-1
OBSERVED PROPERTY: pEC50
Hey, just a heads up that pEC50 is the negative log base 10 of the concentration in molar.

Entry `CC(C)C[C@H](NC(=O)[C@H](Cc1ccccc1)NC(=O)c1cnccn1)B(O)O` : reported pEC50 = ?
8.19

Entry `NS(=O)(=O)OC[C@@H]1C[C@@H](n2ccc3c(N[C@H]4CCc5ccccc54)ncnc32)C[C@@H]1O` : reported pEC50 = ?
6.19

---

- System: panel of cancer cell lines
- TEST DETAILS: Cell viability (CellTiter-Glo) dose-response across cancer cell line panel;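 note: after 72 h compound incubation with CellTiter-Glo ATP readout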
- Type: cell-based, human
- SETTINGS: Homo sapiens, SF-126, SF126
OBSERVED PROPERTY: pEC50
Hey, just a heads up that pEC50 is the negative log base 10 of the concentration in molar.

Entry `CC(C)C[C@H](NC(=O)[C@H](Cc1ccccc1)NC(=O)c1cnccn1)B(O)O` : reported pEC50 = ?
7.88
